Source: ChEMBL document CHEMBL1961873

# TGT: Ephrin type-A receptor 4 (Homo sapiens) (UniProt P54764)
# Sequence (P54764 whole entry): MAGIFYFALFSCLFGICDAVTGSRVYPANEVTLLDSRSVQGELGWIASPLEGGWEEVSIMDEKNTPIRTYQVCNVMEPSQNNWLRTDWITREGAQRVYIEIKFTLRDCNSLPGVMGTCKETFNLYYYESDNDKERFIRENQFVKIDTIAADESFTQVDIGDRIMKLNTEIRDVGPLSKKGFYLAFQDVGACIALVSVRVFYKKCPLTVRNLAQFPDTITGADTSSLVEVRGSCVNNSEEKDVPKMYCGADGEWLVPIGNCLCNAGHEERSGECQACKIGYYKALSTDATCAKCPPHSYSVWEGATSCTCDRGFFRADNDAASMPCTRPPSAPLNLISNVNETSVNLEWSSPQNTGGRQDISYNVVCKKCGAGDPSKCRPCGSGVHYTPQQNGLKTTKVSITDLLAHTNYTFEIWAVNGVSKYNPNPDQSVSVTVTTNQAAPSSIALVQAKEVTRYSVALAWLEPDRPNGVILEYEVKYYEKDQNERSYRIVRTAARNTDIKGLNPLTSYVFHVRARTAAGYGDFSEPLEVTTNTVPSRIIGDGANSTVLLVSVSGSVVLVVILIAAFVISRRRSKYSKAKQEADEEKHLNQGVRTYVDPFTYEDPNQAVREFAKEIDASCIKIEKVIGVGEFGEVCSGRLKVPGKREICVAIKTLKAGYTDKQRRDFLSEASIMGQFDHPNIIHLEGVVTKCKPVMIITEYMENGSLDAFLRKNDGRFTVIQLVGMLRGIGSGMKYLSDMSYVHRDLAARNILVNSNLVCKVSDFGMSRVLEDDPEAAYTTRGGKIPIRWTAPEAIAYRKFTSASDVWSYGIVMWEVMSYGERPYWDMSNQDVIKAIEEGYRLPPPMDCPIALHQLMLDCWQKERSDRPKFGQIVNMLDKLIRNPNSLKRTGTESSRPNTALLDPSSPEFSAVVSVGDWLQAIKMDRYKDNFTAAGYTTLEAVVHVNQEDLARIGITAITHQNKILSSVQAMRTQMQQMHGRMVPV
# PROTOCOL CONDITIONS: at 1 µM
# Description: GSK_PKIS: EPHA4 mean inhibition at 1 uM [Nanosyn]
PARAMETER: inhibition (%)

INSERT INTO measurements (molecule, parameter, assay_value) VALUES
  ('FC(F)(F)c1cccc(Nc2nccc(-c3cnn4nc(-c5ccccc5)ccc34)n2)c1', 'inhibition', -4.97),
  ('CN(C)CCOc1ccc(-c2cc(-c3ccc4c(c3)CCC4=NO)c(-c3ccncc3)o2)cc1', 'inhibition', 0.81),
  ('CNC(=O)c1cncc(/C=C/c2c(C)cccc2C)c1', 'inhibition', 80.9),
  ('NC(=O)c1cc(-c2ccc(F)cc2)cc(-c2ccncc2)c1N', 'inhibition', 12.7);

---

Quick reference: inhibition of the listed items.
# TGT: Discoidin domain-containing receptor 2 (Homo sapiens) (UniProt Q16832)
# Sequence (Q16832 whole entry, the tested form may be a part): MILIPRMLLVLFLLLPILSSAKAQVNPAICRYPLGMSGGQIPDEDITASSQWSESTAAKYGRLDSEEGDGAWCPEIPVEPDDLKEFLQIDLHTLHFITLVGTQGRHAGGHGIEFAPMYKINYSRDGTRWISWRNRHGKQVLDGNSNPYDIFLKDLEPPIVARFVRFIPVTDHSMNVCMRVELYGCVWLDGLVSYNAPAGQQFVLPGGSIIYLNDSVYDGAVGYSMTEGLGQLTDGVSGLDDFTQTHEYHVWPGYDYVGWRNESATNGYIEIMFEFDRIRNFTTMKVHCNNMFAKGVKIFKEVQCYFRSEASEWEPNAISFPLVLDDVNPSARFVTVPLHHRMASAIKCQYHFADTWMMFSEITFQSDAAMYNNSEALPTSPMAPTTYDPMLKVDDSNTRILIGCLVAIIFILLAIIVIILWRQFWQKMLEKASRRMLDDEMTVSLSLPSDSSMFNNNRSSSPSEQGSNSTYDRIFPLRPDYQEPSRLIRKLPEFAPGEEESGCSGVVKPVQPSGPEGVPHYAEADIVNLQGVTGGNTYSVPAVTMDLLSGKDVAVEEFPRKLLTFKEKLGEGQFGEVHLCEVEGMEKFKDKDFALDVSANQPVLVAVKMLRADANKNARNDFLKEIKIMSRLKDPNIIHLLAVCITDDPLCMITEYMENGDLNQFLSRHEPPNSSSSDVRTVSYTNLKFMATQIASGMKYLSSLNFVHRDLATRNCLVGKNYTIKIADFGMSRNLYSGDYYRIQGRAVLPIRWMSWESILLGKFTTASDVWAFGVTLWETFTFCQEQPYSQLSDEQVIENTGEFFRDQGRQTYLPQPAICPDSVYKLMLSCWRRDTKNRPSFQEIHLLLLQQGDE
# PROTOCOL CONDITIONS: at 1 µM
PARAMETER: inhibition (%)

INSERT INTO measurements (molecule, parameter, units, assay_value) VALUES
  ('Clc1ccc(CNc2nccc(-c3cnn4ncccc34)n2)cc1', 'inhibition', '%', 4.61),
  ('c1ccc(-c2n[nH]cc2-c2ccnc(-c3ccc(OCCN4CCOCC4)cc3)c2)nc1', 'inhibition', '%', 7.75),
  ('COc1ccc(-c2ccc3c(NC(=O)C4CC4)n[nH]c3n2)cc1', 'inhibition', '%', 0.84),
  ('NC(=O)c1cc(-c2ccc(F)cc2)cc(-c2ccncc2)c1N', 'inhibition', '%', 2.13),
  ('CN(C)c1ccc2c(c1)/C(=C/Nc1ccc(S(N)(=O)=O)cc1)C(=O)N2', 'inhibition', '%', 2.54);

---

# System: Tyrosine-protein kinase ABL1 (Homo sapiens), P00519 [E255K]
# Sequence (P00519 whole entry E255K): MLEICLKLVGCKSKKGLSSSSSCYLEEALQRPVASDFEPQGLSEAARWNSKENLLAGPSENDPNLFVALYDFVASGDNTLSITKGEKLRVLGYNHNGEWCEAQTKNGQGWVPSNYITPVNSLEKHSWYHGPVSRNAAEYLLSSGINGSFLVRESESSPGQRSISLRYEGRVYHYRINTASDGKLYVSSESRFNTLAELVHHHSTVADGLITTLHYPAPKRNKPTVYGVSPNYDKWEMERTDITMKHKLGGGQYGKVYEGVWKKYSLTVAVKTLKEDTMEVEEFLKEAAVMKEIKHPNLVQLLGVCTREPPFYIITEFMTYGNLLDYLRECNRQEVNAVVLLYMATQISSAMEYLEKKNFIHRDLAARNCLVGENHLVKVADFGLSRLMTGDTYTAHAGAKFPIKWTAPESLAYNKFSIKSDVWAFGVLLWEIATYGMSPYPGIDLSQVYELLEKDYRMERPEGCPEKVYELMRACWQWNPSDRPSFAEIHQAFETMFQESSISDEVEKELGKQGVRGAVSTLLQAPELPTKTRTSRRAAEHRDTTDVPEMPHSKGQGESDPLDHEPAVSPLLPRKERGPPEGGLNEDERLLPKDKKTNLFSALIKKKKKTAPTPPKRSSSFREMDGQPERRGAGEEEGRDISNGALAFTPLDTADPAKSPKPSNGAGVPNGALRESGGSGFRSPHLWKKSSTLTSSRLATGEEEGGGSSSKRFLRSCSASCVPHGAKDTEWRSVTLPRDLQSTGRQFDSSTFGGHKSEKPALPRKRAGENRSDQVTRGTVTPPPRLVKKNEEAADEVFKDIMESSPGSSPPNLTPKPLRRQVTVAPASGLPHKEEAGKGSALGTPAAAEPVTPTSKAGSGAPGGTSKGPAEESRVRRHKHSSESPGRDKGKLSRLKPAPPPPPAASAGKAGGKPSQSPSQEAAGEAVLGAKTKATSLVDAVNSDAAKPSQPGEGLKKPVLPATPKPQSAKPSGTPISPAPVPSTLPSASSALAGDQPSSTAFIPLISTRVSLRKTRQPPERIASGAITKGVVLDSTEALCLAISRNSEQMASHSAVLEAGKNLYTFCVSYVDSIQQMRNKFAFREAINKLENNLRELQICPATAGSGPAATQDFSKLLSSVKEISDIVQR
# PROTOCOL CONDITIONS: at 1 µM
PARAMETER: inhibition (%)

INSERT INTO measurements (molecule, units, assay_value) VALUES
  ('O=C1Nc2ccc(I)cc2C1=Cc1cc(Br)c(O)c(Br)c1', '%', 6.01),
  ('NS(=O)(=O)c1ccc(Nc2cc(-c3ccc(O)c(F)c3)n[nH]2)cc1', '%', 14.8),
  ('COc1cccc(-n2cnc3c(N/N=C/c4ccncc4)ncnc32)c1', '%', 80.2),
  ('Cc1ccc(C(=O)NC2CCC2)cc1-c1ccc(C(=O)NCC2CC2)cc1', '%', 1.67),
  ('Clc1ccc(CNc2nccc(-c3cnn4ncccc34)n2)cc1', '%', 3.72),
  ('O=C1NC(=O)C(c2cccc(Cl)c2)=C1Nc1ccc(Cl)c(C(=O)O)c1', '%', 3.24),
  ('Fc1ccc(-c2nc3n(c2-c2ccncc2)CCS3)cc1', '%', 4.79),
  ('COc1ccc(-c2ccc3c(NC(=O)C4CC4)n[nH]c3n2)cc1', '%', 9.06),
  ('CCc1ccc(Oc2nccc(-c3c(-c4ccc(F)cc4)ncn3C3CCNCC3)n2)cc1', '%', 4.7),
  ('O=C(Nc1n[nH]c2cc(-c3ccccc3)ccc12)C1CC1', '%', 46.5),
  ('NS(=O)(=O)c1ccc(N/N=C2\C(=O)Nc3ccc(-c4cnco4)cc32)cc1', '%', 7.02);

---

# TGT: Testis-specific serine/threonine-protein kinase 1 (Homo sapiens) (UniProt Q9BXA7)
# Sequence (Q9BXA7 whole entry): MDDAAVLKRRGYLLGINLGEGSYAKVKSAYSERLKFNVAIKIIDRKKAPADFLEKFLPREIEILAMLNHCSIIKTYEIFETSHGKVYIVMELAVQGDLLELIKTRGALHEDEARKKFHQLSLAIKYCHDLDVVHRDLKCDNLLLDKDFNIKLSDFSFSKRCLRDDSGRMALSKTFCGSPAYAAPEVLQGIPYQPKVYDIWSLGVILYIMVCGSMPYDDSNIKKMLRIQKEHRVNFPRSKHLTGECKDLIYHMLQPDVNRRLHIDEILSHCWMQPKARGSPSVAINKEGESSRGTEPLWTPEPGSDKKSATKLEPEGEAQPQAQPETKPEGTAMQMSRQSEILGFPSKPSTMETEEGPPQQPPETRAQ
# PROTOCOL CONDITIONS: at 1 µM
Entries and their inhibition values follow.
PARAMETER: inhibition

INSERT INTO assay_data (molecule, tgt, parameter, assay_value) VALUES
  ('O=C(NCC1CC1)c1ccc(-c2cccc(C(=O)NC3CC3)c2)cc1', 'Testis-specific serine/threonine-protein kinase 1 (Homo sapiens) (UniProt Q9BXA7)', 'inhibition', '-0.94%'),
  ('Fc1ccc(-c2nc3n(c2-c2ccncc2)CCS3)cc1', 'Testis-specific serine/threonine-protein kinase 1 (Homo sapiens) (UniProt Q9BXA7)', 'inhibition', '2.73%'),
  ('CCc1cccc(CC)c1/C=C/c1cncc(C(=O)NC)c1', 'Testis-specific serine/threonine-protein kinase 1 (Homo sapiens) (UniProt Q9BXA7)', 'inhibition', '0.1%'),
  ('O=C1NC(=O)C(c2cccc(Cl)c2)=C1Nc1ccc(Cl)c(C(=O)O)c1', 'Testis-specific serine/threonine-protein kinase 1 (Homo sapiens) (UniProt Q9BXA7)', 'inhibition', '4.16%'),
  ('CCN(CC)Cc1ccc(Nc2nccc(-c3cnn4ncccc34)n2)cc1', 'Testis-specific serine/threonine-protein kinase 1 (Homo sapiens) (UniProt Q9BXA7)', 'inhibition', '26.5%'),
  ('COc1ccc2ncn(-c3cc(O[C@H](C)c4ccccc4Cl)c(C(N)=O)s3)c2c1', 'Testis-specific serine/threonine-protein kinase 1 (Homo sapiens) (UniProt Q9BXA7)', 'inhibition', '2.54%'),
  ('Cc1ccc(NC(=O)c2ccoc2)cc1-c1ccc(C(=O)NCC2CC2)cc1', 'Testis-specific serine/threonine-protein kinase 1 (Homo sapiens) (UniProt Q9BXA7)', 'inhibition', '3.27%'),
  ('c1ccc(Oc2ccc(Nc3ncc(-c4ccccc4)o3)cc2)cc1', 'Testis-specific serine/threonine-protein kinase 1 (Homo sapiens) (UniProt Q9BXA7)', 'inhibition', '1.56%'),
  ('COc1ccc2cc(-c3c(-c4ccncc4)nc(-c4ccc([S+](C)[O-])cc4C)n3C)ccc2c1 (stereo not given)', 'Testis-specific serine/threonine-protein kinase 1 (Homo sapiens) (UniProt Q9BXA7)', 'inhibition', '-0.58%'),
  ('CCS(=O)(=O)c1ccc(OC)c(Nc2ncc(-c3ccccc3Cl)o2)c1', 'Testis-specific serine/threonine-protein kinase 1 (Homo sapiens) (UniProt Q9BXA7)', 'inhibition', '-0.15%');

---

# TGT: Serine/threonine-protein kinase pim-3 (Homo sapiens)
# PROTOCOL CONDITIONS: at 0.1 µM
# inhibition values compiled below
PARAMETER: inhibition (%)

INSERT INTO results (compound, parameter, assay_value) VALUES
  ('c1ccc(Oc2ccc(Nc3ncc(-c4ccccc4)o3)cc2)cc1', 'inhibition', 0.36),
  ('O=C(Nc1n[nH]c2nc(-c3ccco3)ccc12)C1CC1', 'inhibition', 0.6),
  ('COc1ccc2cc(-c3c(-c4ccncc4)nc(-c4ccc(S(C)(=O)=O)cc4C)n3C)ccc2c1', 'inhibition', 4.87),
  ('COc1cccc(-n2cnc3c(N/N=C/c4ccncc4)ncnc32)c1', 'inhibition', 3.67),
  ('Fc1ccc(-c2ncn(C3CCNCC3)c2-c2ccnc(Oc3ccc(F)c(F)c3)n2)cc1', 'inhibition', -1.04),
  ('FC(F)(F)c1cccc(Nc2nccc(-c3cnn4nc(-c5ccccc5)ccc34)n2)c1', 'inhibition', -0.15),
  ('CNC(=O)c1cncc(/C=C/c2c(C)cccc2C)c1', 'inhibition', 1.2),
  ('O=C(NCC1CC1)c1ccc(-c2cccc(C(=O)NC3CC3)c2)cc1', 'inhibition', -0.84),
  ('CN(C)CCOc1ccc(-c2cc(-c3ccc4c(c3)CCC4=NO)c(-c3ccncc3)o2)cc1', 'inhibition', 1.08),
  ('COc1cc(Nc2ncc3c(C)nc(-c4cccc(Oc5ccccc5)c4)n3n2)cc(OC)c1OC', 'inhibition', 0.34),
  ('O=C1Nc2ccc(I)cc2C1=Cc1cc(Br)c(O)c(Br)c1', 'inhibition', 1.85),
  ('COc1cccc(/C=N/Nc2ncnc3c2cnn3-c2cccc(OC)c2)c1', 'inhibition', 0.38),
  ('NC(=O)Cc1ccccc1Oc1nccc(-c2c(-c3ccc(F)cc3)ncn2C2CCNCC2)n1', 'inhibition', -1.38),
  ('NC(=O)c1ccc(Oc2nccc(-c3c(-c4ccc(F)cc4)ncn3C3CCNCC3)n2)cc1', 'inhibition', 0.26),
  ('COc1ccc2cc(-c3c(-c4ccncc4)nc(-c4ccc([S+](C)[O-])cc4C)n3C)ccc2c1 (configuration not stated)', 'inhibition', 0.41),
  ('CCc1ccc(Oc2nccc(-c3c(-c4ccc(F)cc4)ncn3C3CCNCC3)n2)cc1', 'inhibition', 1.11),
  ('COc1ccc(-c2ccc3c(NC(=O)C4CC4)n[nH]c3n2)cc1', 'inhibition', 0.42),
  ('CN(C)CCCNc1nccc(-c2c(-c3ccc(F)cc3)nn3cc(C(F)(F)F)ccc23)n1', 'inhibition', -0.45),
  ('CN1CCN(CCCNc2nc3ccc(Oc4ccc(NC(=O)Nc5cc(C(F)(F)F)ccc5F)cc4)cc3[nH]2)CC1', 'inhibition', 1.11),
  ('COc1cc(Nc2ncc3c(C)nc(-c4cccc(C(F)(F)F)c4)n3n2)cc(OC)c1OC', 'inhibition', 3.42),
  ('C/C(Nc1ccc(S(N)(=O)=O)cc1)=C1/C(=O)Nc2ccccc21', 'inhibition', 0.02),
  ('O=C(Nc1ccc(Oc2ccc3[nH]c(NC(=O)c4ccccc4)nc3c2)cc1)Nc1cc(C(F)(F)F)ccc1F', 'inhibition', 0.85),
  ('Fc1ccc(-c2ncn(C3CCNCC3)c2-c2ccnc(Oc3ccc4c(c3)OCO4)n2)cc1', 'inhibition', 0.14),
  ('Fc1ccc(-c2c(-c3ccncc3)nc3n2CCS3)cc1', 'inhibition', 0.35),
  ('c1ccc(-c2n[nH]cc2-c2ccnc(-c3ccc(OCCN4CCOCC4)cc3)c2)nc1', 'inhibition', 5.26),
  ('NC(=O)c1cc(-c2ccc(F)cc2)cc(-c2ccncc2)c1N', 'inhibition', -0.69),
  ('C[C@@H](Oc1cc(-n2cnc3ccc(OCC4CCN(C)CC4)cc32)sc1C(N)=O)c1ccccc1Cl', 'inhibition', 11.4),
  ('CS(=O)(=O)CCNCc1cc(-c2cc3c(Nc4ccc(OCc5cccc(F)c5)c(Cl)c4)ncnc3s2)cs1', 'inhibition', 0.08),
  ('NS(=O)(=O)c1ccc(N/N=C2\C(=O)Nc3ccc(-c4cnco4)cc32)cc1', 'inhibition', 1.42),
  ('COc1cc(N2CCN(C(C)C)CC2)ccc1Nc1nc(Nc2ccc(F)cc2C(=O)NC[C@@H](O)CO)c2cc[nH]c2n1', 'inhibition', 1.39),
  ('Fc1ccc(-c2ncn(C3CCNCC3)c2-c2ccnc(Oc3ccc(Oc4ccccc4)cc3)n2)cc1', 'inhibition', -1.06),
  ('CCc1cccc(CC)c1/C=C/c1cncc(C(=O)NC)c1', 'inhibition', -0.9);
